Test system: pancreatic cancer cells PANC-1 (ATCC CRL-1469)
run description: SRB (Sulforhodamine B) assay in PANC-1 cells
Format: cell-based
measurement context: Homo sapiens, PANC-1; 2D-culture, SRB, 72 hrs, average of 3 runs; read-out: IC50 (PANC-1)
A collection of molecules and their measured pIC50
Here pIC50 is given on a logarithmic scale as minus log10 of the concentration in mol/L.

molecule	measurement target	measurement
O=C1[C@@H](OS(=O)(=O)N2CCCC2)[C@H](c2ccc(F)cn2)N1c1cc2c3ccccc3ccc2c2ccccc12 (racemic)	pancreatic cancer cells PANC-1 (ATCC CRL-1469)	7.23
CC(C)N(C)S(=O)(=O)O[C@@H]1C(=O)N(c2cc3c4ccccc4ccc3c3ccccc23)[C@H]1c1ccc(F)cn1 (racemic)	pancreatic cancer cells PANC-1 (ATCC CRL-1469)	8.06
O=C1[C@@H](OS(=O)(=O)C2CCC2)[C@H](c2ccc(F)cn2)N1c1cc2c3ccccc3ccc2c2ccccc12 (racemic)	pancreatic cancer cells PANC-1 (ATCC CRL-1469)	6.93

Prompt: Recorded pIC50 for O=C1[C@@H](OS(=O)(=O)C2CC2)[C@H](c2ccc(F)cn2)N1c1cc2c3ccccc3ccc2c2ccccc12 (racemic) with pancreatic cancer cells PANC-1 (ATCC CRL-1469), please?
Completion: 7.57

----------
Each record here notes measured melting point.

compound	melting point
CC(C)N(C)S(=O)(=O)O[C@@H]1C(=O)N(c2cc3c4ccccc4ccc3c3ccccc23)[C@H]1c1ccc(F)cn1 (racemic)	166 to 167 °C

Prompt: melting point for CN(C)S(=O)(=O)O[C@@H]1C(=O)N(c2cc3c4ccccc4ccc3c3ccccc23)[C@H]1c1ccc(F)cn1 (racemic) ?
Completion: 196 to 198 °C

Prompt: Given N#CC1CN(S(=O)(=O)O[C@@H]2C(=O)N(c3cc4c5ccccc5ccc4c4ccccc34)[C@H]2c2ccc(F)cn2)C1 (racemic) , state its recorded melting point.
Completion: 212 to 213 °C

Prompt: Need melting point of C[Si](C)(C)CCS(=O)(=O)O[C@@H]1C(=O)N(c2cc3c4ccccc4ccc3c3ccccc23)[C@H]1c1ccc(F)cn1 (racemic) , thanks.
Completion: 210 to 211 °C

Prompt: So what does the record say about melting point for CS(=O)(=O)O[C@@H]1C(=O)N(c2cc3c4ccccc4ccc3c3ccccc23)[C@H]1c1ccc(F)cn1 (racemic) ?
Completion: 253 to 254 °C

Prompt: Reported melting point, compound O=C1[C@@H](OS(=O)(=O)N2CCCC2)[C@H](c2ccc(F)cn2)N1c1cc2c3ccccc3ccc2c2ccccc12 (racemic) : ____
Completion: 205 to 206 °C

Prompt: Entry O=C1[C@@H](OS(=O)(=O)C2CC2)[C@H](c2ccc(F)cn2)N1c1cc2c3ccccc3ccc2c2ccccc12 (racemic) : reported melting point = ?
Completion: 180 to 181 °C

Prompt: Given the entry Cc1ccc(S(=O)(=O)O[C@@H]2C(=O)N(c3cc4c5ccccc5ccc4c4ccccc34)[C@H]2c2ccc(F)cn2)cc1 (racemic) , report its measured melting point.
Completion: 220 to 221 °C

Prompt: Look up melting point: CN1CCN(S(=O)(=O)O[C@@H]2C(=O)N(c3cc4c5ccccc5ccc4c4ccccc34)[C@H]2c2ccc(F)cn2)CC1 (racemic)
Completion: 146 to 147 °C

----------
Test system: pancreatic cancer cells PANC-1 (ATCC CRL-1469)
run description: SRB (Sulforhodamine B) assay in PANC-1 cells
Assay type: cell-based
measurement context: Homo sapiens, PANC-1; 2D-culture, SRB, 72 hrs, average of 3 runs; read-out: IC50 (PANC-1)
pIC50: −log10 of the molar value.
Binary classification by pIC50, with 8 as an inclusive lower bound for class 1; all other cases are class 0.

compound	category
N#CC1CN(S(=O)(=O)O[C@@H]2C(=O)N(c3cc4c5ccccc5ccc4c4ccccc34)[C@H]2c2ccc(F)cn2)C1 (racemic)	class 1

Prompt: Please check the record Nc1ccn([C@@H]2O[C@H](CO)[C@@H](O)C2(F)F)c(=O)n1 [Gemcitabine, reference compound] and state if its pIC50 is at or above 8.
Completion: class 0

Prompt: Has CN(C)S(=O)(=O)O[C@@H]1C(=O)N(c2cc3c4ccccc4ccc3c3ccccc23)[C@H]1c1ccc(F)cn1 (racemic) a recorded pIC50 greater than or equal to 8?
Completion: class 0

Prompt: Kindly determine if pIC50 recorded for CS(=O)(=O)O[C@@H]1C(=O)N(c2cc3c4ccccc4ccc3c3ccccc23)[C@H]1c1ccc(F)cn1 (racemic) is above or exactly 8.
Completion: class 0

Prompt: # check: pIC50 of Cc1ccc(S(=O)(=O)O[C@@H]2C(=O)N(c3cc4c5ccccc5ccc4c4ccccc34)[C@H]2c2ccc(F)cn2)cc1 (racemic) is greater than or equal to 8
Completion: class 1

Prompt: Can CN1CCN(S(=O)(=O)O[C@@H]2C(=O)N(c3cc4c5ccccc5ccc4c4ccccc34)[C@H]2c2ccc(F)cn2)CC1 (racemic) be said to have pIC50 at or above 8?
Completion: class 1

Prompt: Decide: pIC50 of C[Si](C)(C)CCS(=O)(=O)O[C@@H]1C(=O)N(c2cc3c4ccccc4ccc3c3ccccc23)[C@H]1c1ccc(F)cn1 (racemic) >= 8?
Completion: class 0

Reference for the values: patent US20210214341A1
